The following variants are shown together with reported abundance fitness values.
B1: Gamma-crystallin S, residues 96 to 176; numbered along this chain, P22914 (parent)
chain: IQIFEKGDFSGQMYETTEDCPSIMEQFHMREIHSCKVLEGVWIFYELPNYRGRQYLLDKKEYRKPIDWGAASPAVQSFRRI

Variants of: B1
Test: abundance fitness (aPCA) (normalised: wild type 0, dead -1); higher = more abundant; growth selection in yeast, the domain comes from the species named
Conditions: Homo sapiens
Form: value (number only, do not type unit).

-- ask Recorded abundance fitness of V41L , please.
-- reply 0.023

-- ask Recorded abundance fitness of K6I , please.
-- reply -0.009

-- ask Recorded abundance fitness of A70Y , please.
-- reply 0.258

-- ask Recorded abundance fitness of P65C , please.
-- reply -0.184

Others:
-- ask Recorded abundance fitness of G52D , please.
-- reply -0.788

-- ask Recorded abundance fitness of F27D , please.
-- reply -0.156

-- ask Recorded abundance fitness of R53Y , please.
-- reply -0.129

-- ask Recorded abundance fitness of P65N , please.
-- reply -0.284

-- ask Recorded abundance fitness of G7S , please.
-- reply -0.01
